Assay overview: Pharmacokinetics of HCT constituents in rat plasma after a single dose of HCT extract
Format: in vivo, SD rats
Measurement context: female, SD, rat, plasma, 600 mg/kg, 50H: 600 mg/kg BW 50 °C hot-air dried HCT extract
Value type: AUC (µM·h)

(I) O=c1c(O)c(-c2ccc(O)c(O)c2)oc2cc(O)cc(O)c12 [Quercetin, quercetin]
(II) O=C(/C=C/c1ccc(O)c(O)c1)O[C@@H]1C[C@](O)(C(=O)O)C[C@@H](O)[C@H]1O [Chlorogenic acid, chlorogenic acid]
Lower value of AUC belongs to which: I or II ? API: response body contains the label of the selected item.
II

###

Assay overview: Pharmacokinetics of HCT constituents in rat plasma after a single dose of HCT extract
Format: in vivo, SD rats
Measurement context: female, SD, rat, plasma, 600 mg/kg, FDH: 600 mg/kg BW freeze-dried HCT extract
Value type: Cmax (nM)

Here is how some molecules turned out for Cmax.
>  <Molecule>
C[C@@H]1O[C@@H](OC[C@H]2O[C@@H](Oc3c(-c4ccc(O)c(O)c4)oc4cc(O)cc(O)c4c3=O)[C@H](O)[C@@H](O)[C@@H]2O)[C@H](O)[C@H](O)[C@H]1O [Rutin, rutin]

>  <Cmax / nM>
136

$$$$
>  <Molecule>
O=C(O)[C@H]1O[C@@H](Oc2cc3oc(-c4ccc(O)cc4)cc(=O)c3c(O)c2O)[C@H](O)[C@@H](O)[C@@H]1O [Scutellarin, scutellarin]

>  <Cmax / nM>
23.9

$$$$

(I) O=c1c(O)c(-c2ccc(O)c(O)c2)oc2cc(O)cc(O)c12 [Quercetin, quercetin]
(II) O=C(/C=C/c1ccc(O)c(O)c1)O[C@@H]1C[C@](O)(C(=O)O)C[C@@H](O)[C@H]1O [Chlorogenic acid, chlorogenic acid]
Between I and II , which one shows the larger Cmax value? Record your answer as the label of the chosen record.
I

###

half-life values for the molecules below.
Assay overview: Pharmacokinetics of HCT constituents in rat plasma after a single dose of HCT extract
Assay type: in vivo, SD rats
Measurement context: female, SD, rat, plasma, 600 mg/kg, FDH: 600 mg/kg BW freeze-dried HCT extract
Quick note: give the figure in h, leave out the unit.

// below: answered molecules
>  <Chem smiles>
O=C(/C=C/c1ccc(O)c(O)c1)O[C@@H]1C[C@](O)(C(=O)O)C[C@@H](O)[C@H]1O

>  <Output unit>
h

>  <half-life>
2.25

$$$$
>  <Chem smiles>
O=C(O)[C@H]1O[C@@H](Oc2cc3oc(-c4ccc(O)cc4)cc(=O)c3c(O)c2O)[C@H](O)[C@@H](O)[C@@H]1O

>  <Output unit>
h

>  <half-life>
6.91

$$$$

What value of half-life has been recorded for this entry: `C[C@@H]1O[C@@H](OC[C@H]2O[C@@H](Oc3c(-c4ccc(O)c(O)c4)oc4cc(O)cc(O)c4c3=O)[C@H](O)[C@@H](O)[C@@H]2O)[C@H](O)[C@H](O)[C@H]1O`
2.61
